These data points were gathered from patent US20150299125A1.

Listing of entries alongside the reported Conversion in FaSSIF, time.
- EXPERIMENT DESCRIPTION: Conversion of prodrug to parent in in vitro biorelevant gastrointestinal tract media
- Assay type: in vitro ADME
- MEASUREMENT PARAMETERS: FaSSIF, 37° C., 5 h

> print(dat)
                           structure.string            measurement.name  meas.value
1  Cc1cc(Nc2cc(C(F)F)ccn2)nc(-c2ccc([C@](C)(O)[C@H]3CC[C@H](C(=O)OCC4CCNCC4)CC3)nc2)c1  Conversion in FaSSIF, time     0%, 5 h
2  Cc1cc(Nc2cc(C(F)F)ccn2)nc(-c2ccc([C@](C)(O)[C@H]3CC[C@H](C(=O)O[C@H]4CC[C@H](N)CC4)CC3)nc2)c1  Conversion in FaSSIF, time     0%, 5 h
3  CCOCCOCCOC(=O)OCOC(=O)[C@H]1CC[C@H]([C@@](C)(O)c2ccc(-c3cc(C)cc(Nc4cc(C(F)F)ccn4)n3)cn2)CC1  Conversion in FaSSIF, time     0%, 5 h

Input: I'd like to know its Conversion in FaSSIF, time. The compound in question is Cc1cc(Nc2cc(C(F)F)ccn2)nc(-c2ccc([C@](C)(O)[C@H]3CC[C@H](C(=O)OCOC(=O)OCC4CCOCC4)CC3)nc2)c1
Output: 0%, 5 h

Input: I'd like to know its Conversion in FaSSIF, time. The compound in question is CNCCCOC(=O)[C@H]1CC[C@H]([C@@](C)(O)c2ccc(-c3cc(C)cc(Nc4cc(C(F)F)ccn4)n3)cn2)CC1
Output: 0%, 5 h

Input: I'd like to know its Conversion in FaSSIF, time. The compound in question is Cc1cc(Nc2cc(C(F)F)ccn2)nc(-c2ccc([C@](C)(O)[C@H]3CC[C@H](C(=O)OCOC(=O)OCCCCCCN(C)C)CC3)nc2)c1
Output: 0%, 5 h
